TEST SYSTEM: UniProt P33261
Sequence (P33261 whole entry): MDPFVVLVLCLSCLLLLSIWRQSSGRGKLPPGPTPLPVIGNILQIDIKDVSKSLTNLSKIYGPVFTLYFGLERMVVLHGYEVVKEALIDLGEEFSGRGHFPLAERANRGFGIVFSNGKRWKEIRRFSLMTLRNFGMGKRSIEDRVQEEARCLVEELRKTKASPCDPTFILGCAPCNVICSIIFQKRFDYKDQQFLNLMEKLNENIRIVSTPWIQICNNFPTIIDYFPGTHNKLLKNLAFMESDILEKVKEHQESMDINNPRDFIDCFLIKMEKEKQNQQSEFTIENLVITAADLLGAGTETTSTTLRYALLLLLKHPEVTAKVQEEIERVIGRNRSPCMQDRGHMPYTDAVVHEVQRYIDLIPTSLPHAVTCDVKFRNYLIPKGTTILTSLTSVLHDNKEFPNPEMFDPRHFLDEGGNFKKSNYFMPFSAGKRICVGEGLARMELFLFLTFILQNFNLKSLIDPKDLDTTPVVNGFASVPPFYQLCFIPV
METHOD SUMMARY: Cytochrome P450 isoenzyme inhibition assay, hydroxylation of Mephenytoin
Assay type: in vitro ADME
CONDITION LABEL: measured examples from WO 2013/127729 (Table 1)
ATTRIBUTE MEASURED: pIC50
Answers are plain numbers, as −log10 of the molar value.

CNC(C)C(=O)Nc1ccc(-c2c(-c3ccncc3)nc3cc(C)ccn23)c(C#Cc2ccc3nc(C)ccc3c2)n1 (centres unmarked) [Ex 64, reference compound]: 5.37
CNC(C)C(=O)Nc1ccc(-c2c(-c3ccncc3)nc3cc(C)ccn23)c(C#Cc2ccc3c(ccc(=O)n3C)c2)n1 (centres unmarked) [Ex 81, reference compound]: 5.55
CNC(C)C(=O)Nc1ccc(-c2c(-c3ccncc3)nc3cc(C)ccn23)c(C#Cc2ccccc2)n1 (centres unmarked) [Ex 185, reference compound]: 4.80
CNC(C)C(=O)Nc1ccc(-c2c(-c3ccncc3)nc3cc(C)ccn23)c(C#Cc2ccc(-c3ccon3)cc2)n1 (centres unmarked) [Ex 82, reference compound]: 5.32

# next compound below
**Q:** So what's the measured pIC50 for this one? CNC(C)C(=O)Nc1ccc(-c2c(-c3ccncc3)nc3cc(C)ccn23)c(C#Cc2ccc3c(c2)OCC(=O)N3C)n1 (centres unmarked) [Ex 94, reference compound]
**A:** 5.54

All figures here come from patent US9481673B2.
